# EC50 [µM], FXa generation assay values compiled below
# tgt: human Factor IXa (human, UniProt P00740 47-191; P00740 227-461)
# protocol-summary: cell-based or functional assay
Square brackets hold non-standard residues; d marks the D form. Primed or numbered codes have the meaning given here. Ends that are not written are not given here. * marks the point of attachment. Succinimide(1-Et,3-yl) = CCN1C(=O)CC(*)C1=O; PEG4′ = PEG4 spacer

>  <binder>
AQWVGRGQWAIRAPGKLTCLASYCWLFWTGIA [AQWVGRGQWA IRAPG KLTCLASYCWLFWTGIA]

>  <EC50 [µM], FXa generation assay>
> 1 µM

$$$$
>  <binder>
C(Succinimide(1-Et,3-yl))[PEG4′]LVPR[PEG4′][dR]RAPGKLTCLASYCWLFWTGIA (cysteine pairing not given here) [C(N-ethylmaleimide)-PEG4-LVPR-PEG4-rRAPGKLTCLASYCWLFWTGIA]

>  <EC50 [µM], FXa generation assay>
> 1 µM

$$$$
>  <binder>
VGEHRKISCVASNCQLLRSGLA

>  <EC50 [µM], FXa generation assay>
> 20 µM

$$$$
>  <binder>
PRIRTVGPGSRSASGKLTCLASYCWLAWTGIA

>  <EC50 [µM], FXa generation assay>
> 1 µM

$$$$
>  <binder>
KLTCLASYCWLFG (cysteine pairing not given here; also: dimer: two copies joined by ═N-O-(CH2)3-O-N═ (linker 1) at residue 13) [(KLTCLASYCWLFG)2═N-O-(CH2)3-O-N═]

>  <EC50 [µM], FXa generation assay>
< 0.5 µM

$$$$
>  <binder>
NGALGFRSVVPRAAGKLTCLASYCWLFWTGIA [NGALGFRSVV PRAAG KLTCLASYCWLFWTGIA]

>  <EC50 [µM], FXa generation assay>
< 0.5 µM

$$$$
